# Test system: K562
# Test name: Cytotoxicity against human K562 cells by SRB assay
# Type: functional, cell-based
Can you tell me IC50 for the items I'm about to list?
Numbers only, in nM.

Compound: COc1cc([C@@H]2c3cc4c(cc3[C@@H](O[C@@H]3O[C@@H]5CO[C@@H](C)O[C@H]5[C@H](O)[C@H]3O)[C@H]3COC(=O)[C@H]23)OCO4)cc(OC)c1O [ETOPOSIDE]
Tgt: K562
Readout label: IC50
Reading: 1980

Next compound, IC50 to be filled in.
Prompt: Please report the measured IC50 for "COC(=O)c1cccc2c1c(C(=O)C(=O)N[C@@H]1c3cc4c(cc3[C@@H](c3cc(OC)c(OC)c(OC)c3)[C@H]3C(=O)OC[C@@H]31)OCO4)cn2C(=O)c1ccccc1" tested on K562.
Completion: 150
